compounds and their reported TGI
test system: SNB-75 CNS; assay: NCI tumour cell line growth inhibition, 48 h
Kindly answer with a numeric value in µM, unit omitted.

Example compounds with recorded TGI:
COMPOUND: C[C@@H](c1ccccc1)C(CC#N)[C@H]1CCC[C@]1(O)C#Cc1ccc2c(c1)OCO2 (stereo not given in full)
OBSERVED_VALUE: 32
//
COMPOUND: Cc1n[nH]c(=S)n1/N=C/c1ccc(-c2ccc(Cl)cc2)o1
OBSERVED_VALUE: 82.9
//
COMPOUND: COc1cc2c(cc1O)CC[C@@H]1[C@@H]2CC[C@]2(C)[C@@H](OCCCN(C)C)CC[C@@H]12
OBSERVED_VALUE: 0.273

Now for another entry.
input: Tell me reported TGI for NC(=S)Nc1[nH]c(=S)nc2[nH]ccc12 , tested with SNB-75 CNS.
output: 62.9

###

test system: KM12 colon; assay: NCI tumour cell line growth inhibition, 48 h
molecules and their reported TGI

MOLECULE: OC1CCCCCCCCCCC1SCCCCl (configuration not stated)
TGI: > 100 µM

MOLECULE: CC12CCCCC1C(=O)C2(Cl)Cl (configuration not stated)
TGI: 4.97 µM

MOLECULE: COc1cc(/C=C2\CCC/C(=C\c3ccc(OC(=O)CCCCC4CCSS4)c(OC)c3)C2=O)ccc1OC(=O)CCCCC1CCSS1 (configuration not stated)
TGI: > 100 µM

MOLECULE: Cc1ccc(NCCN(C)C)c2c(=O)c3cc(O)ccc3oc12
TGI: 25 µM

MOLECULE: S=c1ssnc1-c1ccccn1
TGI: 15.4 µM

MOLECULE: COC(=O)Cc1c(-c2[nH]c3ccccc3c2CC(=O)OC)[nH]c2ccccc12
TGI: > 100 µM

MOLECULE: N#C/C(=C\Nc1ccccn1)C(=O)C1CC1
TGI: > 100 µM

MOLECULE: COc1cc2nc3c(=C(C#N)C#N)c4ccccc4n3c(=O)c2cc1OC
TGI: > 100 µM

MOLECULE: Cc1ccc(C(=O)CC(O)(C(F)(F)F)C(F)(F)F)cc1[N+](=O)[O-]
TGI: 6.31 µM

MOLECULE: Cc1ccc(S(=O)(=O)N(/N=C/C=C/c2ccccc2)c2nnc(-c3ccccc3)c(-c3ccccc3)n2)cc1
TGI: > 100 µM

Now for another entry.
input: I am curious: what TGI value has been reported for NC(=O)c1c(Br)n(C2OC(CO)C(O)C2O)c2ncnc(N)c12 (configuration not stated) ?
output: 12.3 µM

###

tested on: OVCAR-3 ovarian; experiment: NCI tumour cell line growth inhibition, 48 h
OBSERVATION_TYPE: log10 TGI (log10 of the value in µM)
Note the log scale: values are log10 of TGI expressed in µM.

MOLECULE: Cn1cc/c(=N\N=c2/ccn(C)c3ccccc23)c2ccccc21
log10 TGI: 1.38
//
MOLECULE: COC(=O)C1=C(C(=O)OC)SC(=C(Cl)C(=S)Oc2ccccc2N)S1
log10 TGI: 1.56
//
MOLECULE: O=C1NC(N/N=C/c2cccs2)=N/C1=C\c1ccco1
log10 TGI: 1.87
//
MOLECULE: O=C(NC1CCCCC1)OCc1c(COC(=O)NC2CCCCC2)c(-c2ccc(Cl)c(Cl)c2)n2c1CCC2
log10 TGI: 1.35

Now for another entry.
input: I am curious: what log10 TGI value has been reported for COc1cccc(/C=C2\COc3ccc(O)c(O)c3C2=O)c1 ?
output: 0.29

###

system: HOP-92 NSCLC; experiment: NCI tumour cell line growth inhibition, 48 h
OBSERVATION_TYPE: TGI (µM)
Kindly answer with a numeric value in µM, unit omitted.

MOLECULE: NC(=O)c1c(Br)n(C2OC(CO)C(O)C2O)c2ncnc(N)c12 (stereo not given)
TESTED_SYSTEM: HOP-92 NSCLC
TGI / µM: 7.08

Now for another entry.
input: I am curious: what TGI value has been reported for COc1ccc(OC)c(/C=C/C(=O)N/N=C/c2ccccc2)c1 ?
output: 13.3

###

test system: M19-MEL melanoma; assay: NCI tumour cell line growth inhibition, 48 h
OBSERVATION_TYPE: TGI

Example compounds with recorded TGI:
COMPOUND: COC1CC(Br)(C#N)C1 (stereo not given)
TGI: > 100 µM

COMPOUND: COC(=O)/C(=N\NC(N)=O)C(C(=O)C(=O)Nc1ccccc1C(=O)OC)c1nc2ccc(C(=O)c3ccccc3)cc2[nH]c1=O (stereo not given)
TGI: > 100 µM

COMPOUND: CCCNC1=C(C)C(=O)C2=C(C1=O)[C@H](COC(N)=O)[C@]1(OC)[C@@H]3N[C@@H]3CN21
TGI: 27.3 µM

input: I am curious: what TGI value has been reported for O=C(CC1(O)C(=O)Nc2ccccc21)c1ccc2ccccc2c1 (stereo not given) ?
output: > 100 µM

input: Same question, COc1cc([C@@H]2c3cc4c(c(O[C@@H]5O[C@H]6CO[C@@H](C)O[C@H]6[C@H](O)[C@@H]5O)c3C[C@H]3COC(=O)[C@@H]32)OCO4)cc(OC)c1O this time
output: > 100 µM

input: Same question, O=C(O)CNS(=O)(=O)c1ccc(NC(=O)c2ccccc2[N+](=O)[O-])cc1 this time
output: > 100 µM

input: Same question, O=C1C(Cl)C(c2cc(Br)ccc2O)N1n1cnc2ccccc2c1=O (stereo not given) this time
output: 35.1 µM

input: Same question, COc1ccccc1/C=C1\C(=O)N(C(=O)c2ccc(NC(C)=O)cc2)N=C1C this time
output: > 100 µM

input: Same question, CCc1cccc(C)c1NC(=O)CCc1n[nH]c(=S)o1 this time
output: > 100 µM

input: Same question, N#CC1C(=O)C(=O)N(c2ccccc2)C1=O (stereo not given) this time
output: > 100 µM

###

tested on: OVCAR-8 ovarian; experiment: NCI tumour cell line growth inhibition, 48 h; in the data active = GI50 below about 0.43 µM; inactive = the rest
Result category, one only: active, inactive

Example cases with answers are listed next.
COMPOUND: Nc1cc(N)c2nc(-c3ccccc3)c(NCCc3ccc(Cl)c(Cl)c3)nc2c1
ASSIGNED_CLASS: inactive
//
COMPOUND: CCN(Cc1ccccn1)c1ccc(CO)c(Cl)c1
ASSIGNED_CLASS: inactive
//
COMPOUND: NC(=O)c1c(Br)n(C2OC(CO)C(O)C2O)c2ncnc(N)c12 (centres undefined)
ASSIGNED_CLASS: inactive
//
COMPOUND: COc1ccc(C(=O)c2cc(OC)c(OC)c(OC)c2)cc1OC(=O)C(Cl)(Cl)Cl
ASSIGNED_CLASS: active
//
COMPOUND: COC(=O)c1c(C)c2n(c1C)C(=O)C(c1ccccc1)=C2
ASSIGNED_CLASS: inactive

Here is another compound to look at.
input: Hey, what did the test say about O=S(=O)(Nc1ccc(Cl)c(F)c1)c1ccc(-c2cnc(C3CC3)o2)cc1 ?
output: inactive

###

compounds and their reported TGI
test system: ACHN renal; test: NCI tumour cell line growth inhibition, 48 h
Kindly answer with a numeric value in µM, unit omitted.

COMPOUND: COC(=O)[C@]1(c2cc3ccccc3[nH]2)CC2CN(C(=O)OCc3ccccc3)C1C=C2OC (stereo partly drawn)
TESTED_SYSTEM: ACHN renal
UNIT_OF_MEASUREMENT: µM
TGI: 74.3

input: I am curious: what TGI value has been reported for ClC(Cl)c1nc(-c2ccccc2)n2nc(-c3ccccc3)cc2n1 ?
output: 3.1

input: Same question, CC1(C)CC[C@]2(C(=O)O)CC[C@]3(C)C(=CC[C@@H]4[C@@]5(C)CC[C@H](OC6OC(C(=O)O)C(O)C(O)C6O)C(C)(C)[C@@H]5CC[C@]43C)[C@@H]2C1 (stereo partly drawn) this time
output: 29.6

input: Same question, COc1ccc2cc1Oc1ccc(cc1)CC1c3cc(OC)c(cc3CCN1C)Oc1c(OC)c(OC)cc3c1C(C2)N(C)CC3 (stereo not drawn) this time
output: 19

###

compounds and their reported TGI
tested on: PC-3 prostate; assay: NCI tumour cell line growth inhibition, 48 h

COMPOUND: O=C(/C=C\Sc1ccccn1)c1cccc(Br)c1
OBSERVED_VALUE: 22.5 µM

input: I am curious: what TGI value has been reported for S=c1ssnc1-c1ccccn1 ?
output: > 34.6 µM

input: Same question, O=C(O)CNCP(=O)(O)O this time
output: > 100 µM

input: Same question, CC1(C)CC[C@]2(C(=O)O)CC[C@]3(C)C(=CC[C@@H]4[C@@]5(C)CC[C@H](OC6OC(C(=O)O)C(O)C(O)C6O)C(C)(C)[C@@H]5CC[C@]43C)[C@@H]2C1 (stereo partly specified) this time
output: 33 µM

###

tested on: MDA-MB-231 breast; experiment: NCI tumour cell line growth inhibition, 48 h; in the data active = GI50 below about 0.43 µM; inactive = the rest
Result category, one only: active, inactive

Example cases with answers are listed next.
MOLECULE: COC(=O)c1c(C)c2n(c1C)C(=O)C(c1ccccc1)=C2
TESTED_SYSTEM: MDA-MB-231 breast
ASSIGNED_CLASS: inactive
//
MOLECULE: Cc1ccc(C2C3Cc4ccccc4C3=NN2c2ccc(S(=O)(=O)NC(=O)NC3CCCCC3)cc2)cc1 (stereo unspecified)
TESTED_SYSTEM: MDA-MB-231 breast
ASSIGNED_CLASS: inactive
//
MOLECULE: CC(=O)Nc1c(Br)cc2c(c1Br)Cc1cc(Br)ccc1-2
TESTED_SYSTEM: MDA-MB-231 breast
ASSIGNED_CLASS: inactive
//
MOLECULE: Nc1cc(N)c2nc(-c3ccccc3)c(NCCc3ccc(Cl)c(Cl)c3)nc2c1
TESTED_SYSTEM: MDA-MB-231 breast
ASSIGNED_CLASS: inactive
//
MOLECULE: NCCNC1=CC(=O)c2nc3ccccc3c3ccnc1c23
TESTED_SYSTEM: MDA-MB-231 breast
ASSIGNED_CLASS: inactive

input: Hey, what did the test say about COc1cc2c(cc1O)CC[C@@H]1[C@@H]2CC[C@]2(C)[C@@H](OCCCN(C)C)CC[C@@H]12 ?
output: active

input: Same question, O=C(Nc1ccc(F)cc1F)c1cc(F)ccc1O this time
output: inactive

input: Same question, COc1ccc(/C=C/C(=O)c2ccc(Cl)cc2Cl)cc1 this time
output: inactive

input: Same question, C/C(=N\[N+](C)(C)C)c1ccc(C)c(C)c1 this time
output: inactive

input: Same question, COc1cc(-c2nn(-c3ccc(NC(=O)NCCNS(=O)(=O)c4ccc(F)cc4)cc3)cc2-c2ccncc2)ccc1Cl this time
output: inactive

input: Same question, O=S(=O)(Nc1ccc(Cl)c(F)c1)c1ccc(-c2cnc(C3CC3)o2)cc1 this time
output: inactive

Where these numbers come from: PubChem BioAssay (NCI)
